tested on: SN12C renal; assay: NCI-60 one-dose screen, 48 h; settings: 10 µM unless noted
This is part of a sample that, as a whole, favours compounds with a hit. Of some 83,000 tested, about 20% had one in any assay. Active and inactive are the calls of the source. Rule for the calls: active = growth percent below 10; inactive = the rest.
Outcomes: 1.0 for active, 0.0 for inactive

>>> assigned_class("Cc1ccc(Nc2cccc3ccccc23)cc1")
0.0
>>> assigned_class("COc1cnc2c(c1)C(=O)c1c-2n(CCCNC(C)C)c(=O)c2cc(Cl)ccc12")
0.0
>>> assigned_class("Cc1cc([N+](=O)[O-])c(C)cc1N")
0.0
>>> assigned_class("COc1cc(NC(=O)CSc2nc3ccc(Cl)cc3c(=O)n2-c2ccccc2)cc(OC)c1OC")
0.0
>>> assigned_class("C=C1C(=O)O[C@H]2[C@H]1CC/C(COC(=O)NCc1[nH]nc3ccccc13)=C\\CC[C@@]1(C)O[C@@H]21")
0.0
>>> assigned_class("CN(C)CCCN1c2ccccc2CCc2ccccc21")
0.0
>>> assigned_class("Cc1ccsc1C(=O)CC(=O)C(F)(F)C(F)(F)C(F)(F)F")
0.0
>>> assigned_class("Oc1ccccc1-c1nnc(COc2ccc(Cl)cc2Cl)o1")
0.0
>>> assigned_class("COc1cccc(C2C(C#N)=C(N)Oc3cc4c(cc32)OCO4)c1 (stereo unspecified)")
0.0
>>> assigned_class("Cc1cc(O)c2cc3c(O)c(O)ccc3cc2c1")
0.0
>>> assigned_class("Clc1ccccc1CNc1c2ccccc2nc2ccccc12")
0.0
>>> assigned_class("CN1C2CCC1/C(=C\\c1ccc(F)cc1)C(=O)/C2=C/c1ccc(F)cc1")
0.0
>>> assigned_class("COc1ccccc1CNCCCN1C(=O)c2ccc3c4c(ccc(c24)C1=O)C(=O)N(CCCCNCCCN)C3=O")
1.0
>>> assigned_class("COc1ccccc1CNCCCN1C(=O)c2ccc3c4c(ccc(c24)C1=O)C(=O)N(CCCOCCCCOCCCN)C3=O")
1.0
>>> assigned_class("Cc1cc(O)ccc1Sc1ccccc1[N+](=O)[O-]")
0.0
>>> assigned_class("O=C1OCC2=C1C(c1ccccc1)c1cc3c(cc1N2CCO)OCO3 (stereo unspecified)")
0.0
>>> assigned_class("COc1cccc(N2CCN(c3ncnc4cc[nH]c34)CC2)c1")
0.0
>>> assigned_class("CC(=O)Cc1ccccn1")
0.0
>>> assigned_class("CC(=O)c1ccc(Br)c([N+](=O)[O-])c1")
0.0
>>> assigned_class("O=C(/C=C/c1ccccc1Br)c1cccc(OCCCCOc2cccc(C(=O)/C=C/c3ccccc3Br)c2)c1")
0.0
>>> assigned_class("CC(C)(C)c1nn(-c2ccccc2)c2c1C(=O)CSC(c1ccc3c(c1)OCO3)N2 (stereo unspecified)")
0.0
>>> assigned_class("CC1=C(/C=C/C(C)=C/C=C(C(=O)O)\\C(C)=C\\C(=O)O)C(C)(C)CCC1")
0.0
>>> assigned_class("C=C(c1ccc(C(=O)NCCCn2ccnc2)cc1)c1cc2c(cc1C)C(C)(C)CCC2(C)C")
0.0
>>> assigned_class("COc1cccc(-c2cc(-c3cccs3)c(C#N)c(=O)[nH]2)c1")
0.0
>>> assigned_class("CCCCCCCC/C=C/CCCCCCCC1=NC(C)(C)CN1C(C)C")
0.0
>>> assigned_class("CN(C)c1nc(-c2ccco2)n2nc(-c3ccc(Cl)cc3)cc2n1")
0.0
>>> assigned_class("C[C@@H]1CC2C3CCC4=CC(=O)C=C[C@]4(C)[C@@]3(Cl)[C@@H](O)C[C@]2(C)[C@@]1(OC(=O)c1ccco1)C(=O)CCl (stereo partly specified)")
0.0
>>> assigned_class("CCCCCCCCCCCCCCCCCC(=O)OCCCCCCCCCCCCC")
0.0
>>> assigned_class("C=C1C(=O)O[C@H]2[C@H]1CC/C(COC(=O)NCc1c[nH]c3ccc(OC)cc13)=C\\CC[C@@]1(C)O[C@@H]21")
0.0
>>> assigned_class("O=C(/C=C/c1ccco1)c1ccccc1O")
0.0
>>> assigned_class("CCCCCCCCCCCCNC(=O)N[C@H](C(=O)N[C@H]1/C=C/OCCNC(=O)/C=C/[C@H](C(C)C)NC1=O)C(C)C")
0.0
>>> assigned_class("Cc1cc(Nc2c3ccccc3nc3ccccc23)ccc1NS(C)(=O)=O")
0.0
>>> assigned_class("CC(NC(=O)c1ccccc1)C(=O)Nc1ccccc1 (stereo unspecified)")
0.0
>>> assigned_class("Nc1c(C(=O)Nc2cccc(Cl)c2)sc2nc3c(cc12)C(=O)CCC3")
0.0
>>> assigned_class("COc1ccc(-n2nc(C(=O)Nc3ccc(F)cc3)nc2-c2cc(OC)c(OC)c(OC)c2)cc1")
0.0
>>> assigned_class("O=C1SCN(Cc2ccccc2)CN1Cc1ccccc1")
0.0
>>> assigned_class("COc1ccc(C(=O)C(CN(C)C)c2ccc(OC)cc2)cc1 (stereo unspecified)")
0.0
>>> assigned_class("CC(C)[C@@H]1C=C2CC[C@H]3[C@](C)(CN)CCC[C@]3(C)[C@H]2CC1")
0.0
>>> assigned_class("CC[C@H](C)[C@H](N)C(=O)O")
0.0
>>> assigned_class("Cc1nn(-c2ccccc2)c2nc3c(nc12)C1=NCCN1C(c1ccc(Cl)cc1)N3 (stereo unspecified)")
0.0
>>> assigned_class("C=C(C)[C@@H]1CC[C@]2(C(=O)O)CC[C@]3(C)[C@H](CC[C@@H]4[C@@]5(C)C[C@@H](CC#Cc6ccc(C(C)=O)s6)[C@H](O)C(C)(C)[C@@H]5CC[C@]43C)[C@@H]12")
0.0

---

System: HOP-62 NSCLC
Test: NCI-60 one-dose screen, 48 h
Conditions: 10 µM unless noted
Experimental: Growth inhibition of the HOP-62 human Non-Small Cell Lung tumor cell line is measured as a screen for anti-cancer activity. Cells are grown in 96 well plates and exposed to the test compound for 48 hours. Compounds are tested at a single concentration, which is 10^-5 M for most compounds. The reported endpoint is percent growth (GI% or GIPRCNT), where numbers from 0 - 100% represent growth inhibition, and numbers from -100% - 0 represent cell death. […]
The panel holds about 83,000 compounds, 20% with a hit somewhere; the sample as a whole holds those more often. Activity calls are given as the source filed them. The calls were made as follows: active = growth percent below 10; inactive = the rest.
Outcomes: true (active), false (inactive)

>>> assigned_class("CC[C@H](C)[C@H](N)C(=O)O")
"false"
>>> assigned_class("COc1ccc(CNc2c3ccccc3nc3ccccc23)cc1F")
"false"
>>> assigned_class("c1ccc(CCn2cccc2)nc1")
"false"
>>> assigned_class("O=C(/C=C/c1ccccc1Br)c1cccc(OCCCCOc2cccc(C(=O)/C=C/c3ccccc3Br)c2)c1")
"false"
>>> assigned_class("N/N=C(\\C(=N\\N)c1ccccc1)c1ccccc1")
"false"
>>> assigned_class("O=C(C(=O)N1CCCC1)c1cn(CCCn2cc(C(=O)C(=O)N3CCCC3)c3cc(Br)ccc32)c2ccc(Br)cc12")
"false"
>>> assigned_class("N/C(=N\\O)c1ncc(-c2ccc(C(F)(F)F)cc2)c(NC2CCCCCC2)n1")
"true"
>>> assigned_class("CNC(=O)c1c(NC(=O)c2ccc(C(C)C)cc2)sc2c1CCC(=O)C2")
"false"
>>> assigned_class("COc1cc(C2CC(c3ccc(Cl)cc3)=NN2C(C)=O)ccc1Oc1nc2c(c(=O)n(C)c(=O)n2C)n1C (configuration not stated)")
"false"
>>> assigned_class("COc1cc(NCC(O)CN(CC(C)C)CC(C)C)c2ncccc2c1 (configuration not stated)")
"false"
>>> assigned_class("COC(=O)c1ccc2c(c1)nc(-c1cc3ccccc3[nH]c1=O)n2-c1cc(C(C)(C)C)[nH]n1")
"false"
>>> assigned_class("Clc1ccc(-c2cnc3c(-c4ccnc(N5CCNCC5)c4)cnn3c2)cc1")
"true"
>>> assigned_class("Cc1ccc(C)c2c1SC1=NNC(Oc3ccc(Cl)cc3)=C(C#N)C(=N)N12")
"false"
>>> assigned_class("N=C(N)c1ccc(NCCNc2ccc(C(=N)N)cc2)cc1")
"false"
>>> assigned_class("O=C1Nc2ccccc2/C1=C\\c1nc(C2CCN(S(=O)(=O)c3ccc(F)cc3)CC2)n2ccccc12")
"false"
>>> assigned_class("CC(C)c1nc2ccccc2n1CC(=O)N/N=C/c1cccc(O)c1")
"false"
>>> assigned_class("C=CC(=O)N1CN(C(=O)C=C)CN(C(=O)C=C)C1")
"false"
>>> assigned_class("O=C(CCl)Nc1ccc2c(c1)C(=O)c1ccccc1C2=O")
"false"
>>> assigned_class("COc1ccc(-n2nc(C(=O)Nc3ccc(F)cc3)nc2-c2cc(OC)c(OC)c(OC)c2)cc1")
"false"
>>> assigned_class("CS(=O)(=O)c1ccc(C(=O)N/N=C/c2cccc3ccccc23)cc1")
"false"
>>> assigned_class("N=c1nc(N2CCCCC2)cc(N)n1O")
"false"
>>> assigned_class("CN1C(=O)N(C)C2C1NN=c1s/c(=C\\c3ccc(C(F)(F)F)cc3)c(=O)n12 (configuration not stated)")
"false"

Entry source: PubChem BioAssay (NCI)
